From: PubChem BioAssay

Each item that follows carries a reported composite z-score.
assay: probe aNOTCH3 binding on compound microarray – biochemical, small-molecule microarray, 635/667 nm fluorescence, primary screen (AID 1120);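 further: probe is a biotin-tagged antibody raised against NOTCH3 rather than NOTCH3 protein; score merges spot fluorescence near 667 nm with spot signal to noise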
condition details: higher = more signal
I'd appreciate a reply containing only the number, no unit.

In the examples that follow, each entry is paired with its recorded composite z-score.
{"molecule": "[N-]=[N+]=Nc1ccccc1[C@H]1OC(c2ccc(OCCCO)cc2)=N[C@@]1(Cc1ccccc1)C(=O)NCC(O)CO (stereo not given in full)", "composite z-score": 0.0372}
{"molecule": "CCN(CC)c1ccc(N2CC=CC34O[C@@H]5C=CCCOC(=O)C5[C@H]3C(=O)N(C(C)CO)[C@@H]4C2=O)cc1 (stereo not given in full)", "composite z-score": 0.102}
{"molecule": "COc1ccc(CCNC(=O)[C@@H]2c3ccccc3C(=O)N(Cc3ccccc3OC)[C@H]2c2ccc(CO)cc2)cc1", "composite z-score": -0.176}

API: the following record is the query input.
Quickly give me recorded composite z-score for `COc1ccc([Si](C)(C)[C@@H]2[C@@H](CC(=O)N(CCO)Cc3ccccc3)O[C@]3(C(=O)N(Cc4ccc(I)cc4)c4ccccc43)[C@H]2C)cc1`
0.456

----------
assay: blood-stage malaria parasite viability loss – strain 3D7, DAPI fluorescence, 100 nL, primary screen (AID 1184);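 further: parasites grown inside human red blood cells in medium with human serum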
condition details: P. falciparum 3D7 growth, 3 d, higher = more signal
measurement type: z-score
I'd appreciate a reply containing only the number, no unit.

In the examples that follow, each entry is paired with its recorded z-score.
{"compound": "CC(=O)OCC1C2CC[C@H]3C(OCc4ccc(F)cc4C(F)(F)F)OC[C@]4(C)[C@H]3C2=C(CN4C(=O)OC(C)(C)C)[C@H](C)C1COC(C)=O (stereo partly drawn)", "observed value": -1.22}
{"compound": "CCOC(=O)C[C@H]1[C@H](OC(=O)c2cc3ccccc3oc2=O)[C@@H](NC(=O)CC(C)C)c2cc(OCCCO)ccc2N1C(=O)Cc1ccc(OC)cc1", "observed value": -2.45}

API: the following record is the query input.
Quickly give me recorded z-score for `O=C1O[C@H](c2ccccc2)[C@H](c2ccccc2)N2[C@H]1[C@@H](C(=O)N1CCN(c3ncccn3)CC1)[C@]1(C(=O)Nc3ccc(C#CCCO)cc31)[C@H]2c1ccc(O)cc1`
-0.707

----------
assay: growth modulation of vineyard yeast isolate – strain RM11-1a, OD600, basal, 24 h, primary screen (AID 1177);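 further: cultures grown under basal conditions with no added stressor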
condition details: S. cerevisiae RM11-1a growth, OD600, 24 h; higher = more signal, called active from +8 up or from −8 down
Each item that follows carries a reported z-score.
I'd appreciate a reply containing only the number, no unit.

{"compound": "O=C1[C@H]2C=C(I)[C@H](C[C@@H]2OCCCCCCO)[C@@]12CO2", "observed value": -0.473}
{"compound": "O=C1O[C@H](Cc2ccccc2)[C@@H]2[C@H]3C=CCCC=C3CN2[C@H]1Cc1ccc(O)cc1", "observed value": -0.0533}
{"compound": "COCCOC(=O)N1C(=O)[C@@]2(c3cc(C#CC4(O)CCCCCC4)ccc31)[C@H](c1ccc(O)cc1)N1[C@H](c3ccccc3)[C@H](c3ccccc3)OC(=O)[C@H]1[C@@H]2C(=O)N1CCCCCCC1", "observed value": 0.478}
{"compound": "CCOC(=O)C1=C[C@@H](C(C)(C)C)N(S(=O)(=O)c2ccc(C)cc2)[C@H]1c1ccc(C#N)cc1", "observed value": 1.56}
{"compound": "COC(=O)[C@H](Cc1ccccc1)N1CC2=CCCC=C[C@@H]2[C@H]1[C@H](O)Cc1ccccc1", "observed value": -0.77}

Quickly give me recorded z-score for `CCCC[C@H]1OB(O)C[C@H]2C1=C(COc1ccccc1)C[C@H]1C(=O)C=CC(=O)[C@H]12`
-0.179

Quickly give me recorded z-score for CC1CC/C=C\[C@H]2OC34C=CCN(CCN5CCOCC5)C(=O)[C@H]3N(CCCO)C(=O)[C@@H]4C2C(=O)O1 (stereo partly drawn)
0.296

Quickly give me recorded z-score for COc1cc(C(O)C2C=CC3C(=O)N(c4ccccc4)C(=O)C3N2Nc2ccccc2F)cc(OC)c1OC (stereo not drawn)
0.881

----------
Each item that follows carries a reported z-score.
assay: changes in parasitized red cell lysis, either direction – P. falciparum Indochina, OD700, 3 h, PSAC antagonist project, primary screen (AID 1156)
condition details: P. falciparum-infected erythrocytes, osmotic lysis, higher = more signal, called active from +8 up or from −8 down
I'd appreciate a reply containing only the number, no unit.

In the examples that follow, each entry is paired with its recorded z-score.
{"compound": "CN1C(=O)C2C=CC(C(O)c3ccc(-c4ccccc4)s3)N(NC(=O)OC(C)(C)C)C2C1=O (stereo not given)", "z-score": -0.254}
{"compound": "CCCN1C(=O)[C@]2(CCC(=O)OC(C)(C)C)N=C(c3ccc(OCCCO)cc3)O[C@@H]2c2ccccc21", "z-score": 2.57}
{"compound": "N#Cc1ccc(-c2cccc(=O)o2)cc1", "z-score": -0.598}
{"compound": "CC(C)(C)N1CC=CC23O[C@@H]4C=CCCOC(=O)C4[C@H]2C(=O)N(CCCCCCO)[C@@H]3C1=O (stereo not given in full)", "z-score": 0.639}

API: the following record is the query input.
Quickly give me recorded z-score for `O=C1C=C(c2ccccc2)C(=O)C2=C1CC([C@H]1Oc3ccccc3S(=O)(=O)N3CCC[C@@H]13)=CC2`
-0.299

----------
System: Noggin (protein binding on small-molecule microarray)
assay: small molecules binding Noggin protein – biochemical, 635/667 nm fluorescence, primary screen (AID 1095);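 further: score merges 667 nm feature fluorescence with signal to noise over triplicate slides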
condition details: 635 nm fluorescence, higher = more signal
measurement type: composite z-score
I'd appreciate a reply containing only the number, no unit.

In the examples that follow, each entry is paired with its recorded composite z-score.
{"smiles structure": "C[N+](C)(C)CCCC[C@@H]1NC(=O)[C@H]2C[C@@H](C(=O)NCCCCCNC(=O)CS)[C@@H](c3cccc(OCCO)c3)N2C1=O", "composite z-score": 0.378}
{"smiles structure": "COC(=O)C(CC#Cc1ccc2c(c1)[C@]1(C(=O)N2)[C@H](c2ccccc2OCCO)N2[C@H](c3ccccc3)[C@H](c3ccccc3)OC(=O)[C@H]2[C@@H]1C(=O)N1CCc2cc(OC)c(OC)cc2C1)C(=O)OC", "composite z-score": 1.08}

API: the following record is the query input.
Please indicate recorded composite z-score of `C=C(COC)/C(=C/C[C@H](OC(C)=O)c1ccccc1OCCO)c1cc(C(=O)OC)ccc1OC` measured with Noggin (protein binding on small-molecule microarray).
0.485

----------
Test system: XIP peptide (Xip251-270)
assay: compounds binding XIP fragment 251-270 – biochemical, small-molecule microarray, fluorescence 635/667 nm, 0.5 µg/mL protein, primary screen (AID 1183)
condition details: fluorescence 635 nm, higher = more signal
measurement type: composite z-score

{"compound": "O=C1C2C=CC(C(O)c3ccc([N+](=O)[O-])cc3)N(Nc3ccccc3F)C2C(=O)N1c1ccccc1 (centres undefined)", "observed value": 0.679}
{"compound": "O=C1N(CCS(=O)(=O)c2ccccc2)c2ccccc2C[C@]12N=C(c1ccc(OCCCO)cc1)O[C@@H]2c1ccccc1", "observed value": 0.811}
{"compound": "CCCCC(O)C1C=CC2C(=O)N(c3ccccc3)C(=O)C2N1Nc1ccc(C#N)cc1 (centres undefined)", "observed value": 0.109}
{"compound": "CC(C)(C)N1CC=CC23O[C@@H]4/C=C\\CCCOC(=O)C4[C@H]2C(=O)N(CCCO)[C@@H]3C1=O (some centres undefined)", "observed value": -0.774}

Quickly give me recorded composite z-score for `O=C1C[C@@](C(=O)O)(c2ccc([N+](=O)[O-])cc2)[C@@H](c2ccc(CO)cc2)N1C1CCCCC1`
0.73

----------
subject of test: Follistatin (Homo sapiens)
assay: FST protein binding to printed compounds – biochemical, small-molecule microarray, 635/667 nm fluorescence, primary screen (AID 1132)
condition details: 635 nm fluorescence, higher = more signal
measurement type: composite z-score

In the examples that follow, each entry is paired with its recorded composite z-score.
{"smiles structure": "CCCC=C(CCC)[C@@H](NC(=O)c1ccc(C(F)(F)F)cc1)c1ccc(C(F)(F)F)cc1", "subject of test": "Follistatin (Homo sapiens)", "measurement type": "composite z-score", "observed value": 0.384}
{"smiles structure": "CO[C@H]1O[C@H](CO)[C@@H](OC(=O)Nc2ccc3c(c2)OCO3)[C@H](OC(=O)Nc2ccccc2-c2ccccc2)[C@H]1OC(=O)Nc1ccccc1-c1ccccc1", "subject of test": "Follistatin (Homo sapiens)", "measurement type": "composite z-score", "observed value": 0.694}
{"smiles structure": "COCCOC(=O)N1C(=O)[C@@]2(c3cc(C#CCC(C(=O)OC)C(=O)OC)ccc31)[C@H](c1ccc(O)cc1)N1[C@H](c3ccccc3)[C@H](c3ccccc3)OC(=O)[C@H]1[C@@H]2C(=O)Nc1nc2ccccc2s1", "subject of test": "Follistatin (Homo sapiens)", "measurement type": "composite z-score", "observed value": 1.42}

Quickly give me recorded composite z-score for `CC(C)NC(=O)[C@@H]1c2ccccc2C(=O)N(Cc2ccc(OC(F)(F)F)cc2)[C@H]1c1ccc(CO)cc1`
1.34

Quickly give me recorded composite z-score for `COC(=O)[C@H](Cc1ccccc1)N1CC2=CCCC=C[C@@H]2[C@H]1[C@H](O)Cc1ccccc1`
0.87

Quickly give me recorded composite z-score for `COC(=O)C(CC#Cc1ccc2c(c1)[C@]1(C(=O)N2)[C@H](C(=O)N2CCc3cc(OC)c(OC)cc3C2)[C@H]2C(=O)O[C@H](c3ccccc3)[C@H](c3ccccc3)N2[C@@H]1c1ccccc1OCCO)C(=O)OC`
1.4
